- System Tested: RpoN (sigma-54) (Vibrio parahaemolyticus RIMD2210633) (UniProt Q87LE2)
- Sequence: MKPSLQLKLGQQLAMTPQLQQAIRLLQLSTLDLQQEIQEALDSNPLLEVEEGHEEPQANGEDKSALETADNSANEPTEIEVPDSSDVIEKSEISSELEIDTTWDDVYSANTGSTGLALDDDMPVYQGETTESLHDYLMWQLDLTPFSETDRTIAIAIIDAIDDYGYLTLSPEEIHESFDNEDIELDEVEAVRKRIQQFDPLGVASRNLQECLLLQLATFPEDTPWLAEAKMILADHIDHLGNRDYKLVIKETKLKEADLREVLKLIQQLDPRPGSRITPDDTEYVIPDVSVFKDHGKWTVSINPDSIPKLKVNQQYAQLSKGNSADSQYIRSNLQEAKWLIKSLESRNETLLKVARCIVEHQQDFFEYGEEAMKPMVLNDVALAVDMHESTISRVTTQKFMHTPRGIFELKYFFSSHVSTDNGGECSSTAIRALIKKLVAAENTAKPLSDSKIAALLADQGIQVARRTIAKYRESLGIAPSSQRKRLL
- Protocol Text: EMSA
- Conditions Used: EMSA: 20 µl with 10 ng FAM probe, 4 µl EMSA buffer (10 mM NaCl, 0.1 mM DTT, 0.1 mM EDTA, 10 mM Tris pH 7.4), 1 µl poly-dIdC, 25 °C 0.5 h, 6% native PAGE
Attribute Measured: binding

TGCCTGCAGGTCGACGATCCTTGTTTTATCCCATGGTCAGCGGGCGCGAAGGCGGCACCGGACTTGGGTTGTCCATCTCACAAAATTTGATCGACCAGCACAACGGAAAAATCGACGTTGAAAGCTGGCCTGGCCACACCACTTTTACAATTTATTTGCCGATTTGACCTCACGAATGGATTTCGTTGAGCGCCAATTTACGGTTTTTGCTGCAAGGATTAGTAC (double strand) [VP0118 promoter]    no binding
TTTTGGACCATCCGTCAGTAAATCAAACCCTTCTGGATGTATCAACTGCAGCGGTAACACTTGCGCCAATTGCGCCAATTTTTGCCCAGATTGACCGCCTATTTTAACCTCTGTCGAGCCATCGCGCTGCTTATTAATGCCGATAGGTAGCTCAAATTGATCCGAGTTCAAAAAACGACCATGAACAAACAGTTCATCACACTCATTTTGAATCACACGACCAGTGAGAGAGCTTTTGAATGAGCGACCATGCCCGAGTAAATAAATCGCTTCTAGGACAATCGTCGACCTGCAGGCA (double strand) [gyrB promoter]    no binding
TGCCTGCAGGTCGACGATTTTTGGACTCAACGTAACATTTTTCAATTTTGCCTCTCGTCACATCGCGTGAGTATCGAGTACAAAAATAAAATTTAATGTTCACCACATCCTTGTCGCCTATTGGATTTAGAACATGATGATGAGGACCACAGC (double strand) [flgM promoter]    no binding

====

- System Tested: RpoN (sigma-54) (Vibrio parahaemolyticus RIMD2210633)
- Sequence: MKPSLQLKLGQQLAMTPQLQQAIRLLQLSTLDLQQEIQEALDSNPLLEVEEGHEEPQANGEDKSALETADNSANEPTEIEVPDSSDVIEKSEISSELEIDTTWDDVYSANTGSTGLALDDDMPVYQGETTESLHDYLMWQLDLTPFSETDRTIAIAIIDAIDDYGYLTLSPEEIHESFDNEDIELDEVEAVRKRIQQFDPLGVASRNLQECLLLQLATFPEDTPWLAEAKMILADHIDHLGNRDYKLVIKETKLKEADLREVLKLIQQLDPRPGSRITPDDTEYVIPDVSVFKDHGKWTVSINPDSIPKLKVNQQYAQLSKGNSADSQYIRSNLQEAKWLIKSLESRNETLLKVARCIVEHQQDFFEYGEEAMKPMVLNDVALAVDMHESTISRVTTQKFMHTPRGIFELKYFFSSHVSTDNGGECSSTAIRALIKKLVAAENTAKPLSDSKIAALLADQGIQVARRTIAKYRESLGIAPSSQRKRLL
- Protocol Text: EMSA
- Conditions Used: EMSA: 20 µl with 10 ng FAM probe, 4 µl EMSA buffer (10 mM NaCl, 0.1 mM DTT, 0.1 mM EDTA, 10 mM Tris pH 7.4), 1 µl poly-dIdC, 25 °C 0.5 h, 6% native PAGE
Attribute Measured: binding

TGCCTGCAGGTCGACGATGAGCTGCTGATATGCTGGGTATGCGCCGTACAACGTTGGTTGAGAAAATGCGCAAGTATAATTTGCAGCGTTAGATCGAGCTTCAGTTCAATCACAAAAGTTATCTTTTCTGACATTAAAATCAGACATTTCTCGGTGTCAACTTATTGTCGATAACATAACGTCATGATAAATATAAAAATAGCTTGGTACGCTAATTGCTTACCAAGCTATTTTACTTTTTAGTGGCGATATTTCGACAGGCAGTGA (double strand) [flaL promoter]    no binding
TGCCTGCAGGTCGACGATATCTTAATTCGCACCACTTTAGTGCAGACGTAGATCATTTTGGTGCAATCATTTGCACCAAACTAGCATCTAAAAACACAATTCATTGAAATTAATGGAATATTTTTTTTGGCACGGTTTTGGCTTTAGTAAACACAGCATCGATTAATGAAAAGTCAAAAAGATTAATCAATGCCGGGTTCATGAATATTTCATAAGTCGAGCTTTTACCGCTTATTAACACTGGAGGTTATCCAAG (double strand) [VP0121 promoter]    binds
GTGCCTTGTCAAAAGATATAGCCATGTTTGCCTCTACAATTAAGAACTGACCGTTATTAATAACTAAAAAACCGGAAACGCTAAAACACCTATCAGCTATTGACGTTTTAGATTGCAATAAGCAAGCCAAAGTAACTGGAATGTCGTATCACTTCGCTTACTTGAATAAAGATACACCCTGCAGAGGGAGCAGGGCAAAGTCCGACAACAGATTAGCGAGGGGAAACTCGAAATCTCATCTCATATAGACAAAATCGTCGACCTGCAGGCA (double strand) [ΔflgB promoter (RpoN site deleted)]    no binding
TGCCTGCAGGTCGACGATCTGCAAGTGAAGCAGAAAATCGAAAGTATGTGACCTTTTGGGGTTGCCGCGTACGCGAATCATTGAGGCTTGCCATCGTGCAAGCCTTTATTTTACCTGAATTTACTACTCTAAATCCCACTTGGCACATCTTTTGCTTTTACTTGTCTAGGTGATCGGTATTTACCGATCTTATTTCGTTTTTGGGGGCAGGTATGGCGTCAGATCTTCTG (double strand) [flgK promoter]    no binding

In: Entry TGCCTGCAGGTCGACGATTTAATCAACACGTCACATTCCTAAAATGAATTAAATATTTTCAGCTTTTTAGTCGCCTTGTCTTATAGGGAAACACTAGATGTTTTCGAGAGGAAGGCGGAACACATAAGGTGGAAAATACACTTCCTCTCAAATTTAAATAGTATCGCAAGTCAATGTTTTAAAAGAATATTCAAGTTAGGCACGTATCTTGCGATAAGACATACTTTCAAGGCATAGAGTTACGCCAATTACCAATGAGAGAGGGAGTAAGCTC (double strand) [lafB promoter] : reported binding = ?
Out: no binding

====

- System Tested: RpoN (sigma-54) (Vibrio parahaemolyticus RIMD2210633) (UniProt Q87LE2)
- Sequence: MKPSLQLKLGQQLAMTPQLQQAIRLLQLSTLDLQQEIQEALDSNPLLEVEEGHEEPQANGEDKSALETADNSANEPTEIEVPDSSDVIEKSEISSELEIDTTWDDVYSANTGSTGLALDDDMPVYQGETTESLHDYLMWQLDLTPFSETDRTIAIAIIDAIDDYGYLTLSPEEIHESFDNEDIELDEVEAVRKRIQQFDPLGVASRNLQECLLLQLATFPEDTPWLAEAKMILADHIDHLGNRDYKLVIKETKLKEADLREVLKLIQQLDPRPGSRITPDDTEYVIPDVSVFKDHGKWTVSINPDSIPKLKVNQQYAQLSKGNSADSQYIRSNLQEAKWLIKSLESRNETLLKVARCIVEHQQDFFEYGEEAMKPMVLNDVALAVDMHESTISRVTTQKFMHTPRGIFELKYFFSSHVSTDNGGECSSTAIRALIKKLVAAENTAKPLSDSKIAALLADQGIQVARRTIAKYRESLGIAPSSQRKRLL
- Protocol Text: EMSA
- Conditions Used: EMSA: 20 µl with 10 ng FAM probe, 4 µl EMSA buffer (10 mM NaCl, 0.1 mM DTT, 0.1 mM EDTA, 10 mM Tris pH 7.4), 1 µl poly-dIdC, 25 °C 0.5 h, 6% native PAGE
Attribute Measured: binding

TGCCTGCAGGTCGACGATCTTGGCTTGATAACATCATGACATTCATCTGATGCTTAGCCTGAAAACACCTCAGTTCAGGCTAAGCATGCTTTGATCTCTGGTTTGCCGCTGTTGCCGCCACATGGATCAAAATCTTGCCTCCCTTTGCAGTTTTTTTTCATTGAATATCCTTCTTGATTGCCTTTAATCTCATTCAAGTTTTTGATAAATAAGTTTATTTTTATTTTGGCATAACTATTGCTTTTACTCCGGAAGTACAGAGACTTTTTTGGAGTAA (double strand) [flgF promoter]    no binding
TGCCTGCAGGTCGACGATGTGGAATGTAATGGCCGACGCAAAGAAATGGCAGAGAAGTTGGGCATAAGCCCGCGTACTCTGCGCTACAAACTTGCCAAAATGCGTGACGCGGGTATAGATATTCCGAGTTAGGTTTCACACGCGTAGCCATAAGACAAAAGTGTGAGTAAACTATACAGCTGGCGTCTTGTCAATAATTAGTTTAAATAGATAGTCAAACTTTTGGCTCAGAGGTGATA (double strand) [ΔfliE promoter (RpoN site deleted)]    no binding
TGCCTGCAGGTCGACGATGATATTTTATTGGCATGACATTTGCTATTTGTTGCTCAATACTAATCTGGTTGAAGTTAGCACGGACGCACTGCGTAGTATTCATCGCCTATAGATGGCGGAATAAGAATGCTCATTGATAAGTTAATCAGCAGAATCTCCGGCGCTAACTACACTAAGAGATGGAAAAGACTATCCATGTTCATAAATGGAATTGAGC (double strand) [VP1510 promoter]    no binding
TGCCTGCAGGTCGACGATGTCCTGTCGAAAGAATTCCTAATAACAGTATCCACTTTGAGGAAATTAGAGTTTTCCCCCTAATTTTTTTGCTTTCCGTAAACCGGAAGTTTGGTTTCCACTCTTGTTTGTAAGTCATTGATAAATATAAATAAAATTTATGGCACGTATCTTGTTTGTATCTTGGCGTATTCGAGCCGACTGTAAGGAAAGATGCATGGCGATCACATTTGAAAATGCTTTAGGTGTACATCCAG (double strand) [flgB2 promoter]    binds

In: Entry TGCCTGCAGGTCGACGATCGCCGGAACATCGTCATTAATCGTACAAAAAGCAAAATTAAGAAAAATATAAAACAATCAATGGATTGTGCTGTTATTTAGCTTTGAGTCATTATTTTGGCGTTGATTTTGGTACATAGATTGCTTAAGTCGACTAATTATCAACTATACCTAAACTTTTAGGCGAAAGTGGTCGCGTATAAACATTAGACATACGTATTAAAGTGCGTATTCGCGTGACGCTTCAATTCGATTGAGATACCTCGCAGT (double strand) [flhA promoter] : reported binding = ?
Out: no binding
